TGI: recorded values
- Tested on: HOP-92 NSCLC
- methodDescription: NCI tumour cell line growth inhibition, 48 h
propertyMeasured: TGI (µM)

>>> experimentalresult("CCN1CCN(C(=O)[C@]23CCC(C)(C)C[C@@H]2C2=CC[C@@H]4[C@@]5(C)C/C(=C/c6cccnc6)C(=O)C(C)(C)[C@@H]5CC[C@@]4(C)[C@]2(C)CC3)CC1")
3.26
>>> experimentalresult("O=C(CCl)Nc1ccc2c(c1)C(=O)c1ccc(NC(=O)CCl)cc1C2=O")
2.61
>>> experimentalresult("CN1CCCN(C(c2ccccc2)c2ccc(Br)cc2)CC1 (centres undefined)")
7.73
>>> experimentalresult("O=C(c1ccccc1)c1c(CNCc2ccccc2)n(C(=O)c2ccccc2)c2ccccc12")
82.1

* * *

- Tested on: SK-MEL-2 melanoma
- methodDescription: NCI tumour cell line growth inhibition, 48 h; in the data active = GI50 below about 0.43 µM; inactive = the rest
Possible outcomes: active, inactive

>>> group("Cc1ccc(NC(=O)c2nc(S(C)=O)oc2-c2ccc(F)cc2)cc1Nc1nccc(-c2cccnc2)n1 (stereo not drawn)")
"inactive"
>>> group("COc1cc(C2C(C#N)=C(N)Oc3cc(O)ccc32)cc(OC)c1OC (stereo not drawn)")
"inactive"
>>> group("Oc1cc2ccccc2cc1-c1n[nH]c(=S)n1-c1ccc(Cl)cc1")
"inactive"
>>> group("COc1ccc(Nc2ncccc2C(=O)NCc2cn(Cc3cccc(Oc4ccccc4)c3)nn2)cc1")
"inactive"
>>> group("O=CC1(C2(C=O)c3ccccc3-c3ccccc32)c2ccccc2-c2ccccc21")
"inactive"
>>> group("Cc1ccc(S(=O)(=O)n2cc(-c3nnnn3-c3ccc(Cl)cc3)c(=O)c3ccccc32)cc1")
"inactive"
>>> group("CC(C)Oc1ccc(C(=O)N[C@H](CNC(=O)CN(C)C)Cc2ccc(-c3cn4cccc([C@H](C)O)c4n3)cc2)cc1Cl")
"active"
>>> group("NC[C@@](O)(c1ccc(Cl)cc1)c1ccc(-c2cn[nH]c2)cc1")
"inactive"

* * *

- Tested on: M19-MEL melanoma
- methodDescription: NCI tumour cell line growth inhibition, 48 h
TGI: recorded values
propertyMeasured: TGI

>>> experimentalresult("COc1cc([C@@H]2c3cc4c(c(O)c3C[C@H]3COC(=O)[C@@H]32)OCO4)cc(OC)c1O")
"> 200 µM"
>>> experimentalresult("O=c1[nH]c(/C=C(\\O)c2ccncc2)nc2ccccc12")
"> 100 µM"
>>> experimentalresult("O=C(CSc1nnc(-c2ccc(N=Cc3ccc(Cl)cc3)cc2)o1)Nc1cccc(Cl)c1")
"> 100 µM"
>>> experimentalresult("CCOC(=O)NC(=O)c1cn(CCSCCOC(=O)NCCCCCCNC(=O)OCCSCCn2cc(C(=O)NC(=O)OCC)c(=O)[nH]c2=O)c(=O)[nH]c1=O")
"> 100 µM"
>>> experimentalresult("Cc1cc2c(cc1C)[n+](=O)c(C(=O)/C=C/c1ccccc1Cl)c(C)n2[O-]")
"> 100 µM"
>>> experimentalresult("COc1ccc(C(=O)O)c(Cc2ccc3ccccc3c2)c1")
"> 100 µM"
>>> experimentalresult("O=c1[nH]c(=O)n(C2CC(O)C(CO)O2)cc1C#Cc1cc(F)cc(F)c1 (centres undefined)")
"> 100 µM"
>>> experimentalresult("CCC(/C(=N\\Nc1c(Cl)cc(Cl)cc1Cl)c1ccccc1)n1ccnc1C (centres undefined)")
"29.7 µM"
>>> experimentalresult("O=C(O)C1OC(Oc2cc(O)c3c(=O)cc(-c4ccc(O)cc4)oc3c2)C(O)C(O)C1O (centres undefined)")
"> 100 µM"

* * *

- System: HL-60(TB) leukemia
- methodDescription: NCI tumour cell line growth inhibition, 48 h
propertyMeasured: TGI

>>> experimentalresult("CNC1C(OC2C(OC3C(O)C(O)C(O)C(O)C3O)OC(C)C2(O)CO)OC(CO)C(O)C1O (stereo not drawn) (tested in a mixture with another compound)")
"> 100 µM"
>>> experimentalresult("CN1OC2OC(=O)OC2[C@H]1[C@H]1O[C@H](c2ccccc2)OC1(C)c1cc(OC(=O)c2ccccc2)ccc1OC(=O)c1ccccc1 (stereo partly drawn)")
"> 50 µM"
>>> experimentalresult("C[n+]1ccc(-c2c3nc(c(-c4ccc5c(ccc[n+]5C)c4)c4ccc([nH]4)c(-c4cc[n+](C)cc4)c4nc(c(-c5ccc6c(ccc[n+]6C)c5)c5ccc2[nH]5)C=C4)C=C3)cc1")
"17.2 µM"
>>> experimentalresult("O=c1[nH]c(/C=C(\\O)c2ccncc2)nc2ccccc12")
"> 100 µM"
>>> experimentalresult("Cc1nn(C)c2c1C(=O)N(C)CC(=O)N2C")
"> 100 µM"
>>> experimentalresult("COc1cc2c(cc1OC)C(Cc1c3ccccc3cc3ccccc13)N(C)CC2 (stereo not drawn)")
"31.3 µM"
>>> experimentalresult("O=[N+]([O-])c1ccc(-c2cn(-c3ccc(Cl)cc3)cn2)cc1")
"> 100 µM"
>>> experimentalresult("O=C1C(N2C(=O)c3ccccc3C2=O)CN1C(COCc1ccccc1)c1ccc(OCc2ccccc2)cc1 (stereo not drawn)")
"> 100 µM"

* * *

- Test system: A498 renal
- methodDescription: NCI tumour cell line growth inhibition, 48 h; in the data active means GI50 below about 0.43 µM; inactive means the rest
Possible outcomes: T = active, F = inactive

>>> group("CC(=O)Nc1sc2c(c1-c1nc3ccccc3s1)CNC2")
"F"
>>> group("Cc1ccc(NC(=O)c2nc(S(C)=O)oc2-c2ccc(F)cc2)cc1Nc1nccc(-c2cccnc2)n1 (centres undefined)")
"F"
>>> group("O=C1c2cccnc2C(=O)c2c1c(C(=O)OCCN1CCOCC1)c1ccccn21")
"T"
>>> group("COC(=O)c1ccc(C2SCC(=O)N2NC(=O)C(O)c2ccccc2)cc1 (centres undefined)")
"F"

* * *

- Tested on: HCC-2998 colon
- methodDescription: NCI tumour cell line growth inhibition, 48 h
propertyMeasured: TGI (µM)

>>> experimentalresult("COc1ccccc1Cn1c2c(c3c(C(=O)NCCN(C)C)c(O)ccc31)C(=O)c1ccccc1C2=O")
3.02
>>> experimentalresult("COc1ccc(CNc2nc(NCc3ccc(OC)cc3)c3n[nH]c(C(C)C)c3n2)cc1")
5.99
>>> experimentalresult("C/C(=N\\Nc1nc2ccccc2o1)c1ccncn1")
29
>>> experimentalresult("CN1CCCN(C(c2ccccc2)c2ccc(Br)cc2)CC1 (stereo not given)")
16
>>> experimentalresult("COc1cc([C@@H]2c3cc4c(c(O)c3C[C@H]3COC(=O)[C@@H]32)OCO4)cc(OC)c1O")
2
>>> experimentalresult("Cc1cc(NCCCCCCNc2cc(C)nc3ccc(Cl)cc23)c2cc(Cl)ccc2n1")
30.3
>>> experimentalresult("Cn1cnc([N+](=O)[O-])c1Sc1nc(N)nc2c1ncn2Cc1ccccc1")
29.4
>>> experimentalresult("Cc1c2cccc-2c(OCCO)cc2c1[nH]c1ccccc12")
12.1
>>> experimentalresult("CC(C)[C@@H]1CC[C@@H]2[C@@H]1[C@H](OC(=O)/C=C/c1ccccc1)[C@]1(C(C)C)C[C@@H](OC(=O)CO)[C@@]2(C)O1")
11.7
>>> experimentalresult("CCN(CC)CCOc1ccc(C(=C2CCCCC2)c2ccc(OCCN(CC)CC)cc2)cc1")
2.62
>>> experimentalresult("Oc1cc2c(cc1O)-c1[nH]ncc1CC2")
50.7
>>> experimentalresult("CC(=O)Nc1sc2c(c1-c1nc3ccccc3s1)CNC2")
9.92
>>> experimentalresult("CC[C@@]1(O)C(=O)OCc2c1cc1n(c2=O)Cc2c-1nc1ccccc1c2/C=N/OC(C)(C)C")
14.1
>>> experimentalresult("O=C1C[C@H]2[C@H](c3ccc(Br)cc3)[C@H]3C(=O)c4ccccc4NC(=O)[C@@H]3[C@@]2(O)c2ccccc2N1")
30.3
>>> experimentalresult("Cc1ccc(NC(=O)c2nc(S(C)=O)oc2-c2ccc(F)cc2)cc1Nc1nccc(-c2cccnc2)n1 (stereo not given)")
13
>>> experimentalresult("C=C(CN1CCN(c2cccc(F)c2)CC1)c1ccc(C(=O)Nc2ccccc2N)cc1")
11

* * *

- System: HOP-62 NSCLC
- methodDescription: NCI tumour cell line growth inhibition, 48 h
propertyMeasured: TGI (µM)

>>> experimentalresult("CC[C@]12C=CCN3CCC4(c5cc([C@@]6(C(=O)OC)CC7CN(CCc8c6[nH]c6ccccc86)C[C@@H]6CCC[C@H]76)c(OC)cc5N(C)C4[C@](O)(C(=O)OC)C1OC(C)=O)C32 (stereo not given in full)")
1.31
>>> experimentalresult("OCSc1nn(CO)c(=S)s1")
45.2
>>> experimentalresult("C=C1N(C)c2ccc(Cl)cc2C1(C)C")
72.2

* * *

GI50: recorded values
- Tested on: OVCAR-3 ovarian
- methodDescription: NCI tumour cell line growth inhibition, 48 h
propertyMeasured: GI50

>>> experimentalresult("C=C1N(C)c2ccc(Cl)cc2C1(C)C")
"4.95 µM"
>>> experimentalresult("COC(=O)c1ccc(C2SCC(=O)N2NC(=O)C(O)c2ccccc2)cc1 (stereo unspecified)")
"> 100 µM"
>>> experimentalresult("CC([O-])C(=O)[O-].NCC1CCC1CN.[Pt+4] (stereo unspecified)")
"> 10 µM"
>>> experimentalresult("Oc1cc2ccccc2cc1-c1n[nH]c(=S)n1-c1ccc(Cl)cc1")
"20.3 µM"
>>> experimentalresult("O=C(/C=C/c1cccnc1)c1ccccc1O")
"20.5 µM"
>>> experimentalresult("O=C([O-])c1ccccc1Nc1ccccc1[O-].[Ni+3].[OH3+].[OH3+].[OH3+]")
"> 100 µM"
>>> experimentalresult("NC(N)=Nc1nc2ccccc2[nH]1")
"38.4 µg/mL"
>>> experimentalresult("CC/C=C\\C/C=C\\C[C@H]1C/C=C2/C(=O)C=C[C@H]2C/C=C\\CCC(=O)O1")
"2.11 µM"
>>> experimentalresult("Cc1ccc(S(=O)(=O)n2cc(-c3nnnn3-c3ccc(Cl)cc3)c(=O)c3ccccc32)cc1")
"> 100 µM"
>>> experimentalresult("COc1cc2c3c(c4c5ccccc5[nH]c4c2c(OC)c1OC)C(=O)N(CCN1CCCCC1)C3=O")
"1.31 µM"
>>> experimentalresult("C=C(CN1CCN(c2cccc(F)c2)CC1)c1ccc(C(=O)Nc2ccccc2N)cc1")
"1.94 µM"
